# target or test system: Cytochrome P450 2D6 (Homo sapiens, UniProt P10635)
# Sequence (P10635 whole entry): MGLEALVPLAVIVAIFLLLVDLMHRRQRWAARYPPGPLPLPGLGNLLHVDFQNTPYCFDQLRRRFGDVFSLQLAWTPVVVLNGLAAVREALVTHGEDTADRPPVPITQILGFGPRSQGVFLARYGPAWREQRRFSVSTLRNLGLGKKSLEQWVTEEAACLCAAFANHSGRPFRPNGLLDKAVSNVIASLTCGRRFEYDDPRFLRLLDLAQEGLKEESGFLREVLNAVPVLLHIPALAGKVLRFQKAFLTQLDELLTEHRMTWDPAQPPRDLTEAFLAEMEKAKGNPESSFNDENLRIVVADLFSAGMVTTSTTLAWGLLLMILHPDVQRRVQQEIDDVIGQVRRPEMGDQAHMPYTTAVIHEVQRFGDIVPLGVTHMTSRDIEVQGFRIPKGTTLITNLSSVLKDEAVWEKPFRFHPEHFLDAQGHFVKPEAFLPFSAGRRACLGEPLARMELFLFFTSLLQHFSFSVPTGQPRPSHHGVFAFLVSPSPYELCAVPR
pIC50: −log10 of the molar value.
endpoint: pIC50

# pIC50 (compound: Cc1cc2ncc(C(=O)NCC(C)(C)NCC(=O)N3CCC[C@H]3C#N)cn2n1.Cl [ANAGLIPTIN HYDROCHLORIDE] ) is < 5.00

----------
Below, each entry is listed alongside its reported bioavailability.
# protocol: Oral bioavailability in Beagle dog at 0.5 mg/kg
# Format: ADME, organism-based, Canis lupus familiaris
# cond: in vivo
Numbers only; they are read as %.

molecule | endpoint unit | measured
Cc1cc2ncc(C(=O)NCC(C)(C)NCC(=O)N3CCC[C@H]3C#N)cn2n1.Cl [ANAGLIPTIN HYDROCHLORIDE] | % | 100

Now look at this one.
Noted for `Cc1cc2ncc(C(=O)NCC(C)(C)NCC(=O)N3CCC[C@H]3C#N)c(C)n2n1.Cl` : its bioavailability reads 98

----------
# protocol: Drug excretion in dog urine assessed as unchanged drug at 1 mg/kg, iv measured over 24 hrs
# Format: ADME, organism-based, Canis lupus familiaris
# Set-up: dose 1 mg/kg, route intravenous
# cond: read-out: AE
endpoint: dose excreted at 24 h (%)
Quick reminder: number only, in %, skip the unit.

# dose excreted at 24 h of Cc1cc2ncc(C(=O)NCC(C)(C)NCC(=O)N3CCC[C@H]3C#N)cn2n1.Cl [ANAGLIPTIN HYDROCHLORIDE] = 32

----------
# protocol: Tmax in Sprague-Dawley rat at 3 mg/kg, po
# Type: ADME, organism-based
# Parameters: dose 3 mg/kg, route oral
# cond: in vivo
Collected Tmax values appear next to each entry.
Give a bare numeral; the unit h is implied.

compound | Tmax [h]
Cc1cc2ncc(C(=O)NCC(C)(C)NCC(=O)N3CCC[C@H]3C#N)cn2n1.Cl [ANAGLIPTIN HYDROCHLORIDE] | 2.3

As a next step, examine the compound that follows.
Just so you know, measured Tmax for `Cc1cc2ncc(C(=O)NCC(C)(C)NCC(=O)N3CCC[C@H]3C#N)c(C)n2n1.Cl` came out at 0.25

----------
# target or test system: Dipeptidyl peptidase 2 (Homo sapiens)
# protocol: Inhibition of DPP-2 expressed in human Caco-2 cells using H-Lys-Ala-AMC as substrate preincubated for 30 mins before substrate addition measured after 20 mins by fluorescence assay
endpoint: IC50
Remember to quote the unit after the number.

For this molecule ( `Cc1cc2ncc(C(=O)NCC(C)(C)NCC(=O)N3CCC[C@H]3C#N)cn2n1` ), measured IC50 is 177 µM

----------
# protocol: Oral bioavailability in Sprague-Dawley rat at 10 mg/kg
# Format: ADME, organism-based
# cond: in vivo
endpoint: bioavailability
Please provide the amount together with its unit, number first.

compound | measured
Cc1cc2ncc(C(=O)NCC(C)(C)NCC(=O)N3CCC[C@H]3C#N)c(C)n2n1.Cl | 27%

get_value(item= Cc1cc2ncc(C(=O)NCC(C)(C)NCC(=O)N3CCC[C@H]3C#N)cn2n1.Cl [ANAGLIPTIN HYDROCHLORIDE] , readout=bioavailability) returns 23%

----------
# protocol: Total clearance in Beagle dog at 0.2 mg/kg, iv
# Format: ADME, organism-based, Canis lupus familiaris
# Parameters: dose 0.2 mg/kg, route intravenous
# cond: in vivo
endpoint: clearance
Quick note: number first, unit second.

compound | clearance
Cc1cc2ncc(C(=O)NCC(C)(C)NCC(=O)N3CCC[C@H]3C#N)cn2n1.Cl [ANAGLIPTIN HYDROCHLORIDE] | 0.65 L/h/kg

// next item, clearance requested
Noted for `Cc1cc2ncc(C(=O)NCC(C)(C)NCC(=O)N3CCC[C@H]3C#N)c(C)n2n1.Cl` : its clearance reads 0.62 L/h/kg
